The measurements presented in this section are drawn from ChEMBL document CHEMBL1201862.

test system: K562; assay: NCI tumour cell line growth inhibition, 48 h
The source made the active and inactive calls. Rule as the data show it: active = GI50 up to about 1.1 µM and inactive = higher.
Listed here: items and their measured GI50.
PROPERTY NAME: GI50

Cc1nc(N2N=C(c3ccc(Cl)cc3)CCC2=O)sc1[N+](=O)[O-]; > 100 µM (inactive)
O=C1CCCCC/C1=C\c1ccc(F)cc1; > 100 µM (inactive)
COC(=O)C(=O)C(C(=O)C=C(C)C)C(=O)C(=O)Nc1ccc(Cl)cc1C (stereo unspecified); 71.8 µM (inactive)
N#Cc1ccc(-c2nc3cc(Cl)ccc3[nH]2)cc1; 50.2 µM (inactive)
N#Cc1nnc2c3c(-c4ccc(Cl)cc4)c(C#N)c(O)nc3nn2c1N; 7.33 µM (inactive)
COP(=N[Si](C)(C)C)(OC)OC; > 100 µM (inactive)

----------
test system: Malme-3M; assay: NCI tumour cell line growth inhibition, 48 h
Activity calls are given as the source filed them. Rule as the data show it: active = GI50 up to about 1.1 µM and inactive = higher.
Listed here: items and their measured GI50.
PROPERTY NAME: GI50

O=C(CSc1nnc(-c2ccc(/N=C\c3ccc(Cl)cc3)cc2)o1)Nc1ccc(Cl)cc1Cl; 21.5 µM (inactive)
Cc1cc(O)nc(/N=C(\N)Nc2ccc(Cl)cc2)n1; > 100 µM (inactive)
C[C@]12CC[C@H]3[C@@H](CC=C4C[C@@H](N5CCCC5)CC[C@@]43C)[C@@H]1C[C@H](N1CCOCC1)[C@@H]2O; > 100 µM (inactive)
NC(=O)c1nnc2cc(F)ccc2c1N; > 100 µM (inactive)
OCCSCc1cc2c(O)c(c1)Cc1cc(CSCCO)cc(c1O)Cc1cc(CSCCO)cc(c1O)Cc1cc(CSCCO)cc(c1O)C2; 2.04 µM (inactive)
CC(=O)CCCCC(=O)Nc1ccc(CC(NC(=O)OC(C)(C)C)C(=O)NCC(=O)OCc2ccccc2)cc1 (stereo not given); 19.3 µM (inactive)
CS(=O)(=O)N1CC(CI)c2ccc(O)cc21 (stereo not given); 1.93 µM (inactive)
CCCc1[nH]nc(C(N)=O)c1/N=N/N(C)C; 98.2 µM (inactive)
CSc1ccccc1NC1=NCCO1; > 100 µM (inactive)
O=C(O)c1cccc(SSc2cccc(C(=O)O)c2)c1; > 100 µM (inactive)

----------
Listed here: items and their measured GI50.
tested on: KM12; assay: NCI tumour cell line growth inhibition, 48 h
The source made the active and inactive calls. Cut-off read from the data, not from the text of the source: active = GI50 up to about 1.1 µM and inactive = higher. Where a SMILES comes first, the peptide text is derived from it. Bridges are numbered along the chain shown (N, C = ends). [ ]: non-standard residue; d: D form. The star is where a group is joined. ξ: configuration not given here. ξNMePhe(4-NMe2) = CNC(Cc1ccc(N(C)C)cc1)C(=O)O; Picolinoyl(3-OH) = O=C(c1ncccc1O)*; ξPip(4-oxo) = O=C1CCNC(C(=O)O)C1; Phg = N[CH](C(=O)O)c1ccccc1; Abu = CC[CH](N)C(=O)O
PROPERTY NAME: GI50

COc1ccc(N[S+]([O-])c2c(C)cc(C)cc2C)cc1 (stereo not drawn); 22.5 µM (inactive)
Cc1ccc(NC(=O)c2cc3cc(/N=N/c4ccccc4C(=O)O)ccc3oc2=O)cc1; 44.5 µM (inactive)
CC1=C/C(O)CC(=O)Cc2nc(co2)C(=O)N2CCC=C2C(=O)OC(C(C)C)C(C)/C=C/C(=O)NC\C=C\1.CCC1NC(=O)C(NC(=O)c2ncccc2O)C(C)OC(=O)C(c2ccccc2)NC(=O)C2CC(=O)CCN2C(=O)C(Cc2ccc(N(C)C)cc2)N(C)C(=O)C2CCCN2C1=O (stereo not drawn) ({Picolinoyl(3-OH)}-T[Abu]P[ξNMePhe(4-NMe2)][ξPip(4-oxo)][Phg]; ester 1-C; configuration not given here); 10.4 µM (inactive)
